# ASSAYED_SYSTEM: cIAP2-BIR2 (Homo sapiens (Human))
# Sequence (Q13489 158-242): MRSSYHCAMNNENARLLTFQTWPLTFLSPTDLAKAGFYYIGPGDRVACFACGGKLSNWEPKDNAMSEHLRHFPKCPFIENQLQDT
# ASSAY: BIR binding assay (FRET competition), cIAP2 BIR2
pIC50: −log10 of the molar value.
EXPERIMENTAL_ENDPOINT: pIC50

Recorded pIC50, per entry:
C[C@@H]1CN(CC(=O)N2CC(C)(C)c3[nH]c(=O)c(Cc4ccc(Cl)cc4)cc32)[C@@H](CN2CCO[C@H](C(=O)NCc3ccc(CNC(=O)[C@@H]4CN(C[C@H]5CN[C@H](C)CN5CC(=O)N5CC(C)(C)c6[nH]c(=O)c(Cc7ccc(Cl)cc7)cc65)CCO4)cc3)C2)CN1 | 4.29 to 5.00
C[C@@H]1CN(CC(=O)N2CC(C)(C)c3[nH]c(=O)c(Cc4ccc(F)cc4)cc32)[C@@H](CN2CCO[C@H](C(=O)NCc3cccc(CNC(=O)[C@@H]4CN(C[C@H]5CN[C@H](C)CN5CC(=O)N5CC(C)(C)c6[nH]c(=O)c(Cc7ccc(F)cc7)cc65)CCO4)c3)C2)CN1 | 5.50 to 6.00
Cc1ccc(Cc2cc3c([nH]c2=O)C(C)(C)CN3C(=O)CN2C[C@@H](C)NC[C@@H]2CN2CCO[C@H](C(=O)NCc3ccc(CNC(=O)[C@@H]4CN(C[C@H]5CN[C@H](C)CN5CC(=O)N5CC(C)(C)c6[nH]c(=O)c(Cc7ccc(C)cc7)cc65)CCO4)cc3)C2)cc1 | 6.00 to 7.65

Answer for every listed entry: what is its pIC50? The entries follow.
1. C[C@@H]1CN(CC(=O)N2CC(C)(C)c3[nH]c(=O)c(Cc4ccc(F)cc4)cc32)[C@@H](CN2CCC(CCNC(=O)c3ccc(C(=O)NCCC4CCN(C[C@H]5CN[C@H](C)CN5CC(=O)N5CC(C)(C)c6[nH]c(=O)c(Cc7ccc(F)cc7)cc65)CC4)cc3)CC2)CN1
2. C[C@@H]1CN(CC(=O)N2CC(C)(C)c3[nH]c(=O)c(Cc4ccc(F)cc4)cc32)[C@@H](CN2CCO[C@H](C(=O)NCCCN(C)C(=O)[C@@H]3CN(C[C@H]4CN[C@H](C)CN4CC(=O)N4CC(C)(C)c5[nH]c(=O)c(Cc6ccc(F)cc6)cc54)CCO3)C2)CN1

["5.00 to 5.50", "5.00 to 5.50"]

Answer for every listed entry: what is its pIC50? The entries follow.
1. C[C@@H]1CN(CC(=O)N2CC(C)(C)c3[nH]c(=O)c(Cc4ccc(F)cc4)cc32)[C@@H](CN2CCO[C@H](COCc3cccc(COC[C@@H]4CN(C[C@H]5CN[C@H](C)CN5CC(=O)N5CC(C)(C)c6[nH]c(=O)c(Cc7ccc(F)cc7)cc65)CCO4)c3)C2)CN1
2. C[C@@H]1CN(CC(=O)N2CC(C)(C)c3[nH]c(=O)c(Cc4ccc(F)cc4)cc32)[C@@H](CN2CCC[C@H](NC(=O)Cc3ccc(CC(=O)N[C@H]4CCCN(C[C@H]5CN[C@H](C)CN5CC(=O)N5CC(C)(C)c6[nH]c(=O)c(Cc7ccc(F)cc7)cc65)C4)cc3)C2)CN1

5.00 to 5.50
5.00 to 5.50
